Study system: T1, human factor XIIa (human, UniProt P00748 20-615, biotinylated with Biotin Ester (Zymed); sites not stated)
T1 chain: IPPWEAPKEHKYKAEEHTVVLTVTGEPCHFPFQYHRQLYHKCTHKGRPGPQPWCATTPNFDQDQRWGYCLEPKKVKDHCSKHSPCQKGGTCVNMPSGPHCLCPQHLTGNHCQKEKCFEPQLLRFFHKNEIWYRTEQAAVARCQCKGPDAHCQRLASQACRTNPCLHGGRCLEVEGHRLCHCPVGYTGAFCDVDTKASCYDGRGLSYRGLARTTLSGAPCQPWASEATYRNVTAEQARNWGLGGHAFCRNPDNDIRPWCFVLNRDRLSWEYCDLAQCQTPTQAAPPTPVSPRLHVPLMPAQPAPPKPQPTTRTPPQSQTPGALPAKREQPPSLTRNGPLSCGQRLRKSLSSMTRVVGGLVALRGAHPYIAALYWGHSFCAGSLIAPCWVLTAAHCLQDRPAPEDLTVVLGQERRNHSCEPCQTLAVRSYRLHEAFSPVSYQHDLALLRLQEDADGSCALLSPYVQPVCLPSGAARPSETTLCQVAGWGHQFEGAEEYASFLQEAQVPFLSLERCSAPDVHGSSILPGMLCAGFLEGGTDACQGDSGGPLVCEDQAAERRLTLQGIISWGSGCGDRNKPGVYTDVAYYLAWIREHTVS
Test protocol: enzyme inhibition
Output Satisfied for records whose Ki is lower than 200 nM, Not satisfied for records at or above 200 nM.

q: # strict comparison: is reported Ki < 200 nM? input = TW6169 (protein) EVVREVCSEQAETGPCRALILRWYFDVTEGKCAPFFYGGCGGNRNNFDTEEYCMAVCGSAI
a: Not satisfied

q: # strict comparison: is reported Ki < 200 nM? input = TW6204 (protein) EVVREVCSEQAETGPCRAAISAWYFDVTEGKCAPFFYGGCGGNRNNFDTEEYCMAVCGSAI
a: Satisfied

q: # strict comparison: is reported Ki < 200 nM? input = DD114 (protein) EVVREVCSEQAETGPCRAAISRWYFDVTEGKCAPFFYGGCRGNRNNFDTEEYCMAVCGSAI
a: Not satisfied

q: # strict comparison: is reported Ki < 200 nM? input = TW6203 (protein) EVVREVCSEQAETGPCRAGIPRWYFDVTEGKCAPFFYGGCGGNRNNFDTEEYCMAVCGSAI
a: Not satisfied
